System: human SMAD7 mRNA
Measurement description: Dose-dependent inhibition of human SMAD7 mRNA expression in A431 cells, oligonucleotide added without transfection (Example 5, Study 1)
Assay type: cell-based
Condition info: 0.74 μM, approximately 48 hours
Measured metric: % inhibition of SMAD7 mRNA expression (%)
Numbers only here, please. The scale is %.

Task: // lookup % inhibition of SMAD7 mRNA expression for 830121 (AGAATCAAGCCCTGGC; 3-10-3 cEt gapmer, further chemistry not given here) [compound 830121]
Output: 27

Task: // lookup % inhibition of SMAD7 mRNA expression for 830025 (antisense TTTGTAAATCGAAAGC; 3-10-3 cEt gapmer, further chemistry not given here) [compound 830025]
Output: 22

Task: // lookup % inhibition of SMAD7 mRNA expression for 790615 (CCAATGAGAATGCTTC; 3-10-3 cEt gapmer, further chemistry not given here) [compound 790615]
Output: 55

Task: // lookup % inhibition of SMAD7 mRNA expression for 798781 (CGTAAGATTCACAGCA; 3-10-3 cEt gapmer, further chemistry not given here) [compound 798781]
Output: 41

Task: // lookup % inhibition of SMAD7 mRNA expression for 736697 (antisense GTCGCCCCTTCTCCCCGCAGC; chemistry not fully specified) [compound 736697]
Output: 24

Task: // lookup % inhibition of SMAD7 mRNA expression for 830037 (antisense CTATTGGCTGATCTGG; 3-10-3 cEt gapmer, further chemistry not given here) [compound 830037]
Output: 29

* * *

Test system: human SMAD7 mRNA
Measurement description: Dose-dependent inhibition of human SMAD7 mRNA expression in Hep3B cells (Example 3, Study 1 and 2)
Format: cell-based
Condition info: 1250.0 nM, electroporation, approximately 16 hours, Study 1
Strand notation (5' to 3'): a small letter for the sugar, then the base; units joined by * are phosphorothioate-linked, units joined directly phosphodiester-linked; [ ] holds rarer units or linkages, { } end groups; capitals alone tell only the bases. e = 2'-O-(2-methoxyethyl) (MOE); [5mC] = 5-methylcytosine; d = 2'-deoxy (DNA)
Measured metric: % inhibition of SMAD7 mRNA expression
State the result as a value with its unit after it.

Task: // lookup % inhibition of SMAD7 mRNA expression for 771506 (antisense eG*e[5mC]*eT*e[5mC]*eA*dG*d[5mC]*dT*d[5mC]*dA*d[5mC]*dG*d[5mC]*dT*d[5mC]*eT*eG*eT*e[5mC]*e[5mC]) [compound 771506]
Output: 1%

Task: // lookup % inhibition of SMAD7 mRNA expression for 771444 (eA*eG*e[5mC]*e[5mC]*eT*d[5mC]*dT*dT*dG*dA*d[5mC]*dT*dT*d[5mC]*d[5mC]*eG*eA*eG*eG*eA; antisense) [compound 771444]
Output: 0%

Task: // lookup % inhibition of SMAD7 mRNA expression for 771742 (antisense eA*eG*eA*e[5mC]*eA*dG*dA*dT*d[5mC]*dT*d[5mC]*dT*dG*dA*dA*eG*eT*e[5mC]*eA*eG) [compound 771742]
Output: 0%

Task: // lookup % inhibition of SMAD7 mRNA expression for 771416 (e[5mC]*e[5mC]*e[5mC]*e[5mC]*eA*dT*dG*d[5mC]*dG*d[5mC]*dT*d[5mC]*dG*dG*d[5mC]*eT*eG*eT*e[5mC]*e[5mC]; antisense) [compound 771416]
Output: 3%

Task: // lookup % inhibition of SMAD7 mRNA expression for 771576 (antisense eG*eG*eG*e[5mC]*eA*dG*dG*dA*dG*dA*dG*dA*d[5mC]*dA*d[5mC]*e[5mC]*eG*e[5mC]*eT*eT) [compound 771576]
Output: 24%

Task: // lookup % inhibition of SMAD7 mRNA expression for 771704 (antisense e[5mC]*eA*eG*eG*eA*dG*dG*dG*dT*dA*dT*dG*d[5mC]*dA*d[5mC]*eA*e[5mC]*eT*e[5mC]*eT) [compound 771704]
Output: 19%

Task: // lookup % inhibition of SMAD7 mRNA expression for 771407 (antisense eA*eG*eG*eA*eG*d[5mC]*dG*dA*dA*d[5mC]*dA*dT*dG*dA*d[5mC]*e[5mC]*eT*e[5mC]*e[5mC]*eG) [compound 771407]
Output: 0%

Task: // lookup % inhibition of SMAD7 mRNA expression for 771610 (antisense eA*e[5mC]*e[5mC]*eT*eG*dA*dT*dG*dT*d[5mC]*dA*d[5mC]*d[5mC]*dA*dG*eG*eG*e[5mC]*eA*eG) [compound 771610]
Output: 0%

Task: // lookup % inhibition of SMAD7 mRNA expression for 771583 (antisense eT*eG*e[5mC]*eT*e[5mC]*d[5mC]*dT*dG*dG*d[5mC]*dA*dG*d[5mC]*dT*dG*e[5mC]*eT*eG*eG*eG) [compound 771583]
Output: 15%

Task: // lookup % inhibition of SMAD7 mRNA expression for 771711 (antisense e[5mC]*eG*e[5mC]*eA*e[5mC]*dT*dT*d[5mC]*dA*d[5mC]*dA*dG*dT*dT*d[5mC]*eA*e[5mC]*eA*eG*eG) [compound 771711]
Output: 25%

Task: // lookup % inhibition of SMAD7 mRNA expression for 771815 (antisense e[5mC]*eT*e[5mC]*e[5mC]*e[5mC]*dT*dT*dT*dT*d[5mC]*dA*d[5mC]*dT*dG*d[5mC]*eT*e[5mC]*e[5mC]*eA*e[5mC]) [compound 771815]
Output: 0%
